molecular target: Sulfonylurea receptor 1, Kir6.2 (Homo sapiens) (UniProt Q14654+Q09428); experiment: Percentage of maximal agonistic response of Beta-cell KATP channel as compared to diazoxide (50 uM); format: functional
READOUT LABEL: Max (%)

[a] O=S1(=O)N=C(NC2CCC2)Nc2ccc(Cl)cc21
[b] O=[N+]([O-])c1ccc2c(c1)S(=O)(=O)NC(NC1CCC1)=N2
Lab note: record which item had the higher Max, a or b . Kindly give the label for the entry you pick.
a

----------
biological target: Sulfonylurea receptor 1, Kir6.2 (Homo sapiens, UniProt Q09428+Q14654); experiment: Negative log EC50 for Beta-cell KATP channel; assay type: functional
Sequence (Q14654 whole entry): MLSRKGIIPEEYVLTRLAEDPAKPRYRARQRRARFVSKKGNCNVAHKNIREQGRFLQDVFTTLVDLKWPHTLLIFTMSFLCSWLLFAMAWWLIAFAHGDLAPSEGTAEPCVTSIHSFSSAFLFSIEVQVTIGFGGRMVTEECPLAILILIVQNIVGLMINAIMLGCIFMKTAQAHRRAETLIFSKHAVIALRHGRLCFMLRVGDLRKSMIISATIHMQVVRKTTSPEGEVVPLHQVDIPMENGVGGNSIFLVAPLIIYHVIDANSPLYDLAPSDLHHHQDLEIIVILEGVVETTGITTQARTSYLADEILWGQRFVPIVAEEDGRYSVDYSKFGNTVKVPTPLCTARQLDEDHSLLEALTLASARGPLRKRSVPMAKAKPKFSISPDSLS
Sequence (Q09428 whole entry): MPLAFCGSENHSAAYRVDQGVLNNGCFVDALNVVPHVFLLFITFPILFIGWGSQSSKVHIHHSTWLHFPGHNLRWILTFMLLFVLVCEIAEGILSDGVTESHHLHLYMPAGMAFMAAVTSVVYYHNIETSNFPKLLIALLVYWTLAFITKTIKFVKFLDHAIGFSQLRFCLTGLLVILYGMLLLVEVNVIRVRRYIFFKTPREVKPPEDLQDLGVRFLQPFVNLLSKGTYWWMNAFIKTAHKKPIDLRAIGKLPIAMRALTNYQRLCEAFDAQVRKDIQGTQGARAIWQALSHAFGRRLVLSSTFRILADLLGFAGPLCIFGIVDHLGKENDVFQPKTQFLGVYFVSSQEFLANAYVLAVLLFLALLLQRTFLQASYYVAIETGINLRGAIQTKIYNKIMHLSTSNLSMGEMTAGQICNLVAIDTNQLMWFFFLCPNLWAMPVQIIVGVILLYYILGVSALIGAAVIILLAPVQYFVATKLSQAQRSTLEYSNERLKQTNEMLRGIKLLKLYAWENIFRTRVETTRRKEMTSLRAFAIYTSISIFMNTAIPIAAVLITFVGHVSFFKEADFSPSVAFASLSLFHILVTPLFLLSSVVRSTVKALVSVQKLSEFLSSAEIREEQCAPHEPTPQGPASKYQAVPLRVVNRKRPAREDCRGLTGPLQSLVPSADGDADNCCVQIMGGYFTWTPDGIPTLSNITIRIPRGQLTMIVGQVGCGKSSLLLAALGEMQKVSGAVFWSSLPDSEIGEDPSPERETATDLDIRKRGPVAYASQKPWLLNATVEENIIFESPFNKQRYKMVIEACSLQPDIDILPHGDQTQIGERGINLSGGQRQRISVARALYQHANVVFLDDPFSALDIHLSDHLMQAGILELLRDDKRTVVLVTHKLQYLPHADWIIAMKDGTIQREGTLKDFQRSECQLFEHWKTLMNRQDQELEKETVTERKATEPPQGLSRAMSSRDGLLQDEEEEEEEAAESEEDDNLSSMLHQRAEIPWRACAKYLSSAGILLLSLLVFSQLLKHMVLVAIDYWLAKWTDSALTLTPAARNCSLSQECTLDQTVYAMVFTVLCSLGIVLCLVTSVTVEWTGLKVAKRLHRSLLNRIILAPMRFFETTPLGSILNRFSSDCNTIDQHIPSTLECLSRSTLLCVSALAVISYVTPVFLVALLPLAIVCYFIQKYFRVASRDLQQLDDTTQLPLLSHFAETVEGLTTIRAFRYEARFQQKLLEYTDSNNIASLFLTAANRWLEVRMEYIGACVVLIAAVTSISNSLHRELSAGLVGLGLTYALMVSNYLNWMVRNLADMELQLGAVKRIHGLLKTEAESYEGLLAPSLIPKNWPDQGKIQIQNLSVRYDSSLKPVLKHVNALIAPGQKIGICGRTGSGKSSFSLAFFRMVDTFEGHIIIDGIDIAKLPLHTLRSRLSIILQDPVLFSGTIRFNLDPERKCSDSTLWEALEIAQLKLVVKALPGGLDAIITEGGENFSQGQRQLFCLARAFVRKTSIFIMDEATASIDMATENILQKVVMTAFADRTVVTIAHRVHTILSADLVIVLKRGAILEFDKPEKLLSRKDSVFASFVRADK
READOUT LABEL: EC50 (µM)

// below: answered compounds
| SMILES | UNIT OF MEASURE | EC50 |
| --- | --- | --- |
| Nc1ccc2c(c1)S(=O)(=O)NC(NC1CCC1)=N2 | µM | 31.6 |
| COc1ccc2c(c1)S(=O)(=O)NC(NC1CCC1)=N2 | µM | 3.98 |

[1] O=S1(=O)N=C(NC2CCC2)Nc2ccccc21
[2] O=S1(=O)N=C(NC2CCC2)Nc2ccc(Cl)cc21
[3] O=S1(=O)NC(NC2CCC2)=Nc2ccc(F)cc21
Parameters: sort_field (EC50), sort_dir (desc). Provide the labels, sequenced as the question asks.
1, 3, 2

----------
assay: Acid dissociation constant was determined; assay type: ADME
READOUT LABEL: pKa

| COMPOUND | READOUT LABEL | READING |
| --- | --- | --- |
| CC1=NS(=O)(=O)c2cc(Cl)ccc2N1 [DIAZOXIDE] | pKa | 8.62 |
| O=[N+]([O-])c1ccc2c(c1)S(=O)(=O)NC(NC1CCC1)=N2 | pKa | 7.89 |
| O=S1(=O)N=C(NC2CCC2)Nc2ccc(Cl)cc21 | pKa | 9.36 |
| O=S1(=O)NC(NC2CCC2)=Nc2ccc(F)cc21 | pKa | 9.57 |

----------
target: Sulfonylurea receptor 1, Kir6.2 (Homo sapiens) (UniProt Q14654+Q09428); experiment: Percentage of maximal agonistic response of Beta-cell KATP channel as compared to diazoxide (50 uM); assay type: functional
READOUT LABEL: Max (%)

| SMILES | UNIT OF MEASURE | READING |
| --- | --- | --- |
| O=S1(=O)NC(NC2CCC2)=Nc2ccc(F)cc21 | % | 136 |
| Nc1ccc2c(c1)S(=O)(=O)NC(NC1CCC1)=N2 | % | 96.9 |
| O=S1(=O)N=C(NC2CCC2)Nc2ccccc21 | % | 109 |
| CC1=Nc2ccc(Cl)cc2S(=O)(=O)N1 | % | 100 |
| COc1ccc2c(c1)S(=O)(=O)NC(NC1CCC1)=N2 | % | 122 |
